Measured folding stability dG unfold values are reported for all entries that follow.
# experiment.summary: folding stability dG unfold from chymotrypsin proteolysis; higher = more stable
reported.property: folding stability dG unfold (kcal/mol)

INSERT INTO measurements (chain, reported_property, recorded_result) VALUES
  ('SKTVEITLTNEDGSTVTITFNEETGKIVIKVPPNVSVEQIKALLRKLLPPGAEVTITRTPNGYYEIEVKPSA [r9_933_TrROS_Hall]', 'folding stability dG unfold', 4.41),
  ('SAGGGGSMTIVVPVEVSPETSEEEVRKRAEEIARPIAEELGKKVSIEVSREEDPEGGRRWTATITILSAGGS [r16_279_JUSTAS]', 'folding stability dG unfold', 2.6),
  ('SAGGSAGGSAGSKDTMYLLKVKDLGENELKETYIEVPAEKVQEVIDALSSDPNLEIEVIPSAGGSAGGSAGG [r17_50_TrMRF]', 'folding stability dG unfold', 1.09);

----------
# experiment.summary: folding stability dG unfold from chymotrypsin proteolysis; higher = more stable
So basically: folding stability dG unfold at 2 kcal/mol or higher? That is criterion met. Lower than 2 kcal/mol? That is criterion not met.

INSERT INTO results (chain, label_class) VALUES
  ('SAGGKKTVEIPIWMPYDDAKNIAKEAVEEAAASNDNVTVTIEIWQWEPDPNGKPEWQPIGKAEIKVPPSAGG [r13_974_TrROS]', 'criterion not met'),
  ('SAGGSPNYKINVEVEEYEPNPDNGKPYYRARIKIEWYNPENGREQTREIDFWMSPDKAEKFLKDILSAGGSA [r2_357_TrROS]', 'criterion met'),
  ('SAGGMVEIELVPMSEEELKKLREELPENEILIVVKEDGLVLIVRVEKSEEEAEKLAEELRKLLEELPSAGGS [r16_311_TrROS_Hall]', 'criterion not met'),
  ('SAGMKTVTVKVKISEEEREKLKELGFEIVEEKEDYLVIKVKVPPELSEEELEEAKKEGMTLEEALAKLSAGG [r19_115_TrROS_Hall]', 'criterion not met'),
  ('SAGGSAGGSSTTPVTITVPESILDEIKKKAEELGIKVEVEIKESPENKKYATVTIEIPENVELSAGGSAGGS [r12_653_JUSTAS]', 'criterion not met'),
  ('SAGGSAGGSAGETVTLTLTVTVTRTYYDAETGEEVEQETETRTLTLTMSKEELERLLKELSAGGSAGGSAGG [r17_283_TrROS_Hall]', 'criterion met'),
  ('SAGDYDVEKDPDGYRVEHKNGDKRYVPPVPPPIPVVMIPIKDPEDLDEFANELGLNITDISDDWITMPASAG [r5_328_TrROS]', 'criterion not met'),
  ('SAGGSAGGSMKKIKIEVYNKDGSKTELPLSEILKLYDFDAEEIKKFLEKLFPKDVKFKIEIEGSAGGSAGGS [r12_399_TrMRF]', 'criterion met'),
  ('SAGGSAGGSAGSMTLLATETFPETGKTVKYYKEGDTIYRVDYSDPKNPVVTELSPSDPLKSAGGSAGGSAGG [r17_145_JUSTAS]', 'criterion met'),
  ('SAGGSAEIEITVTVPPEMTEEEIKEQLEAELQRLTGEKVEIVDIRVEEVNGELTVTVKIKIEPAPPSAGGSA [r15_105_TrROS_Hall]', 'criterion met');
